System: UACC-62 melanoma
MEASUREMENT PROTOCOL: NCI-60 one-dose screen, 48 h (100 = growth as untreated, 0 = no growth, -100 = all killed)
SETTINGS: 10 µM
This is part of a sample that, as a whole, favours compounds with a hit. Of some 83,000 tested, about 20% had one in any assay.
ASSAY READOUT: growth (%)

O=C(NC(=S)Nc1ccccn1)c1ccccc1 : 93.1
ClCCn1c(CCl)nc2ccc(Cl)cc21 : -79.6
CC[C@@]1(OC(=O)CN(C)C)C(=O)OCc2c1cc1n(c2=O)Cc2cc3c(N)cccc3nc2-1 : -77.8
COc1ccc(N)c2c1C(=O)c1ccccc1C2=O : 94.3
NCc1c(O)ccc2ccccc12 : 95.4
O=c1[nH]cc(/C=N\Nc2ccccc2)c(=O)[nH]1 : 7.82
